Test system: U87MG cells
Assay: Cellular assay, inhibition of 2-HG production in U87MG cells
Format: cell-based
Details: Homo sapiens, U-87 MG, 48 h
Form field: IC50 (one value per entry).
experimental readout: IC50

- compound: "N#Cc1ccnc(N2C(=O)[C@@H](O)C[C@H]2C(=O)N(c2cc(F)cc(F)c2)[C@H](C(=O)NC2CCC(F)(F)CC2)c2ccccc2Cl)c1"
  meas value: "< 100 nM"
- compound: "O=C(NC1CC(F)(F)C1)C(c1c(Cl)cccc1Cl)N(C(=O)[C@@H]1CCC(=O)N1c1ncccn1)c1cccc(F)c1 (stereo partly shown)"
  meas value: "100 to 500 nM"
- compound: "O=C(NC1CC(F)(F)C1)[C@H](c1ccccc1Cl)N(C(=O)[C@@H]1CCC(=O)N1c1cc(Cl)ccn1)c1cccc(F)c1"
  meas value: "100 to 500 nM"
- compound: "C[C@]1(O)C[C@@H](C(=O)N(c2cccc(F)c2)C(C(=O)NC2CC(F)(F)C2)c2ccccc2Cl)N(c2cc(C#N)ccn2)C1=O (single isomer, unassigned)"
  meas value: "< 100 nM"

* * *

Tested on: U87MG cells
Experiment: Cellular assay, inhibition of 2-HG production in U87MG cells
Assay type: cell-based
Settings: Homo sapiens, U-87 MG, 48 h

- compound: "N#Cc1ccnc(N2C(=O)CC[C@H]2C(=O)N(c2cccc3[nH]cnc23)C(C(=O)NC2CCC(F)(F)CC2)c2ccccc2Cl)c1 (stereo partly drawn) [Compound 141]"
  target of assay: "U87MG cells"
  IC50: "< 100 nM"
- compound: "N#Cc1cc(F)cc(N(C(=O)[C@@H]2CCC(=O)N2c2nccc(C#N)n2)[C@H](C(=O)NC2CCC(F)(F)CC2)c2ccccc2Cl)c1 [Compound 185]"
  target of assay: "U87MG cells"
  IC50: "< 100 nM"
- compound: "CS(=O)(=O)c1cc(F)cc(N(C(=O)[C@@H]2CCC(=O)N2c2nccc(C#N)n2)[C@H](C(=O)NC2CC(F)(F)C2)c2ccccc2Cl)c1 [Compound 109]"
  target of assay: "U87MG cells"
  IC50: "100 to 500 nM"
- compound: "O=C(NC1CC(F)(F)C1)[C@H](c1ccccc1Cl)N(C(=O)[C@@H]1COCC(=O)N1c1ncccn1)c1cccc(F)c1 [Compound 30]"
  target of assay: "U87MG cells"
  IC50: "100 to 500 nM"
- compound: "N#Cc1ccnc(N2C(=O)CC[C@H]2C(=O)N(c2cc(F)cc(F)c2)[C@H](C(=O)NC2CC(F)(F)C2)c2ncccc2Cl)c1 [Compound 198]"
  target of assay: "U87MG cells"
  IC50: "< 100 nM"
- compound: "N#Cc1ccnc(N2C(=O)CC[C@H]2C(=O)N(c2cccc3[nH]ncc23)C(C(=O)NC2CC(F)(F)C2)c2ccccc2Cl)c1 (stereo partly drawn) [Compound 152]"
  target of assay: "U87MG cells"
  IC50: "< 100 nM"
- compound: "CS(=O)(=O)c1cccc(N(C(=O)[C@@H]2CCC(=O)N2c2cc(C#N)ccn2)C(C(=O)NC2CCC(F)(F)CC2)c2ccccc2Cl)c1 (stereo partly drawn) [Compound 95]"
  target of assay: "U87MG cells"
  IC50: "< 100 nM"
- compound: "N#Cc1ccnc(N2C(=O)[C@H](O)C[C@H]2C(=O)N(c2cc(F)cc(F)c2)[C@@H](C(=O)NC2CC(F)(F)C2)c2ccccc2Cl)c1 [Compound 114]"
  target of assay: "U87MG cells"
  IC50: "< 100 nM"
- compound: "[2H]c1c([2H])c([2H])c([C@@H](C(=O)NC2CC(F)(F)C2)N(C(=O)[C@@H]2CCC(=O)N2c2cc(C#N)ccn2)c2cc(F)cc(F)c2)c(Cl)c1[2H] [Compound 163]"
  target of assay: "U87MG cells"
  IC50: "< 100 nM"
- compound: "N#Cc1ccnc(N2C(=O)CC[C@H]2C(=O)N(c2cc(F)cc(F)c2)[C@H](C(=O)NC2CC(F)(F)C2)c2ccccc2Cl)c1F [Compound 88]"
  target of assay: "U87MG cells"
  IC50: "< 100 nM"
- compound: "CN(C)S(=O)(=O)c1cccc(N(C(=O)[C@@H]2CCC(=O)N2c2cc(C#N)ccn2)[C@H](C(=O)NC2CC(F)(F)C2)c2ccccc2Cl)c1 [Compound 156]"
  target of assay: "U87MG cells"
  IC50: "< 100 nM"
- compound: "N#Cc1ccnc(N2C(=O)[C@H](O)C[C@H]2C(=O)N(c2cc(F)cc(F)c2)[C@H](C(=O)NC2CCC(F)(F)CC2)c2ccccc2Cl)c1 [Compound 125]"
  target of assay: "U87MG cells"
  IC50: "< 100 nM"

* * *

System: U87MG cells
Assay: Cellular assay, inhibition of 2-HG production in U87MG cells
Format: cell-based
Conditions: Homo sapiens, U-87 MG, 48 h
pIC50: −log10 of the molar value.

- compound: "CCOC(=O)CN1C[C@@H](C(=O)N(c2cccc(F)c2)C(C(=O)NC2CC(F)(F)C2)c2ccccc2Cl)N(c2nccc(C#N)n2)C1=O (stereo partly drawn)"
  target of assay: "U87MG cells"
  pIC50: "> 7.00"
- compound: "CS(=O)(=O)c1cccc(N(C(=O)[C@@H]2CCC(=O)N2c2nccc(C#N)n2)[C@H](C(=O)NC2CCC(F)(F)CC2)c2ccccc2Cl)c1"
  target of assay: "U87MG cells"
  pIC50: "6.30 to 7.00"
- compound: "N#Cc1ccnc(N2C(=O)CC[C@H]2C(=O)N(c2cccc(F)c2)[C@H](C(=O)NC2CC(F)(F)C2)c2ccccc2Cl)n1"
  target of assay: "U87MG cells"
  pIC50: "> 7.00"
- compound: "N#Cc1ccnc(N2C(=O)CC[C@H]2C(=O)N(c2cncc(F)c2)[C@H](C(=O)NC2CC(F)(F)C2)c2ccccc2F)c1"
  target of assay: "U87MG cells"
  pIC50: "> 7.00"
- compound: "N#Cc1ccnc(N2C(=O)CC[C@H]2C(=O)N(c2cccc(CCO)c2)[C@H](C(=O)NC2CC(F)(F)C2)c2ccccc2Cl)c1"
  target of assay: "U87MG cells"
  pIC50: "> 7.00"
- compound: "N#Cc1ccnc(N2C(=O)CC[C@H]2C(=O)N(c2cccc(F)c2)[C@H](C(=O)NC2CCC(F)(F)CC2)c2ccccc2Cl)n1"
  target of assay: "U87MG cells"
  pIC50: "> 7.00"

* * *

System: U87MG cells
Experiment: Cellular assay, inhibition of 2-HG production in U87MG cells
Format: cell-based
Conditions: Homo sapiens, U-87 MG, 48 h
Entries annotated with measured IC50

- compound: "N#Cc1ccnc(N2C(=O)[C@H](O)C[C@H]2C(=O)N(c2cc(F)cc(F)c2)[C@H](C(=O)NC2CC(F)(F)C2)c2ccccc2Cl)n1 [Compound 117]"
  target of assay: "U87MG cells"
  IC50: "< 0.1 µM"
- compound: "N#Cc1ccnc(N2C(=O)CC[C@H]2C(=O)N(c2cccc(S(N)(=O)=O)c2)[C@H](C(=O)NC2CC(F)(F)C2)c2ccccc2Cl)c1 [Compound 84]"
  target of assay: "U87MG cells"
  IC50: "0.1 to 0.5 µM"
- compound: "N#Cc1ccnc(N2C(=O)CC[C@H]2C(=O)N(c2cc(F)cc(C3CC3)c2)[C@H](C(=O)NC2CC(F)(F)C2)c2ccccc2Cl)c1 [Compound 204]"
  target of assay: "U87MG cells"
  IC50: "< 0.1 µM"
- compound: "N#Cc1ccnc(N2C(=O)CC[C@H]2C(=O)N(c2cc(F)cc(F)c2)[C@H](C(=O)NC2CCC(F)(F)CC2)c2ccccc2Cl)n1 [Compound 87]"
  target of assay: "U87MG cells"
  IC50: "< 0.1 µM"
- compound: "N#Cc1ccnc(N2C(=O)CC[C@H]2C(=O)N(c2cccc(OC(F)(F)F)c2)C(C(=O)NC2CC(F)(F)C2)c2ccccc2Cl)n1 (stereo partly drawn) [Compound 180]"
  target of assay: "U87MG cells"
  IC50: "< 0.1 µM"
- compound: "O=C(NC1CC(F)(F)C1)C(c1ccccc1Cl)N(C(=O)[C@@H]1CCC(=O)N1c1ccccc1)c1cccc(F)c1 (stereo partly drawn) [Compound 23]"
  target of assay: "U87MG cells"
  IC50: "0.1 to 0.5 µM"

* * *

System: U87MG cells
Experiment: Cellular assay, inhibition of 2-HG production in U87MG cells
Format: cell-based
Settings: Homo sapiens, U-87 MG, 48 h
pIC50: −log10 of the molar value.
Measured pIC50, listed per entry.
experimental readout: pIC50

- compound: "N#Cc1ccnc(N2C(=O)CC[C@H]2C(=O)N(c2cncc(F)c2)C(C(=O)NC2CC(F)(F)C2)c2ccccc2Cl)c1 (stereo partly drawn)"
  target of assay: "U87MG cells"
  experimental readout: "pIC50"
  meas value: "> 7.00"
- compound: "O=C(NC1CC(F)(F)C1)C(c1ccccc1Cl)N(C(=O)[C@@H]1CCCC(=O)N1c1ncccn1)c1cccc(F)c1 (stereo in doubt)"
  target of assay: "U87MG cells"
  experimental readout: "pIC50"
  meas value: "6.30 to 7.00"
- compound: "N#Cc1ccnc(N2C(=O)[C@H](O)C[C@H]2C(=O)N(c2cc(F)cc(F)c2)[C@@H](C(=O)NC2CCC(F)(F)CC2)c2ccccc2Cl)c1"
  target of assay: "U87MG cells"
  experimental readout: "pIC50"
  meas value: "> 7.00"
- compound: "O=C(NC1CC(F)(F)C1)[C@H](c1ccccc1Cl)N(C(=O)[C@@H]1CCC(=O)N1c1ncccn1)c1cccc(F)c1"
  target of assay: "U87MG cells"
  experimental readout: "pIC50"
  meas value: "6.30 to 7.00"
- compound: "O=C(NC1CC(F)(F)C1)[C@H](c1ccccc1Cl)N(C(=O)[C@@H]1COC(=O)N1c1cscn1)c1cccc(F)c1"
  target of assay: "U87MG cells"
  experimental readout: "pIC50"
  meas value: "> 7.00"
- compound: "N#Cc1ccnc(N2C(=O)CC[C@H]2C(=O)N(c2cc(F)cc(F)c2)[C@H](C(=O)NC2CC(F)(F)C2)c2c(Cl)cccc2Cl)c1"
  target of assay: "U87MG cells"
  experimental readout: "pIC50"
  meas value: "> 7.00"

src = patent US10640534B2
